I'd appreciate it if you could supply AD38 Viability Normalized Result (CPAM/DMSO %) at 10 μM values for the items below.
Tested on: AD38 cells
Test: Viability of AD38 cells (Promega CellTiter-Glo) at the end of compound treatment
Type: cell-based
Conditions: 10 μM compound, 6 days, luminescence normalized against DMSO control wells (controls being 100%)
Numbers only, in %.

CC(C)NS(=O)(=O)c1ccc2c(c1)NC(=O)c1ccccc1S2 [Compound 1450] | 94

Would you mind giving AD38 Viability Normalized Result (CPAM/DMSO %) at 10 μM for every compound in the list below?
1. O=C(NCCCc1ccccc1)c1ccc2c(c1)NC(=O)c1ccccc1S2 [Compound 1108]
2. Cc1nnc(CNC(=O)c2ccc3c(c2)NC(=O)c2ccccc2S3)o1 [Compound 1578]
3. O=C(NCc1ccc(F)cc1)c1ccc2c(c1)NC(=O)c1ccccc1S2(=O)=O [Compound 1623]
4. O=C(NCCc1cncnc1)c1ccc2c(c1)NC(=O)c1ccccc1[S+]2[O-] (stereo not drawn) [Compound 1423]
5. O=C(NCCC1CCCCC1)c1ccc2c(c1)NC(=O)c1cc(Cl)ccc1S2 [Compound 1235]
6. CN1c2ccc(C(=O)NCCc3cncs3)cc2NC(=O)c2ccccc21 [Compound 1532]

1: 105; 2: 100; 3: 128; 4: 91; 5: 61; 6: 112

Would you mind giving AD38 Viability Normalized Result (CPAM/DMSO %) at 10 μM for every compound in the list below?
1. COc1cccc(CNC(=O)c2ccc3c(c2)NC(=O)c2ccccc2S3)c1 [Compound 1160]
2. O=C(NCC1CCC1)c1ccc2c(c1)NC(=O)c1ccccc1S2 [Compound 1174]
3. O=C(Nc1nc2ccc(Cl)cc2s1)c1ccc2c(c1)NC(=O)c1cc(F)ccc1S2 [Compound 1340]
4. O=C1Nc2cc(S(=O)(=O)N3CCCC3)ccc2Sc2ccccc21 [Compound 1432]

1. 105
2. 109
3. 116
4. 91

Would you mind giving AD38 Viability Normalized Result (CPAM/DMSO %) at 10 μM for every compound in the list below?
1. CCCCCCCCNC(=O)c1ccc2c(c1)NC(=O)c1ccccc1S2 [Compound 1152]
2. O=C(NCCc1cncs1)c1ccc2c(c1)NC(=O)c1ccccc1[S+]2[O-] (stereo not drawn) [Compound 1527]

45
116

Would you mind giving AD38 Viability Normalized Result (CPAM/DMSO %) at 10 μM for every compound in the list below?
1. O=C(NCC1CCCO1)c1ccc2c(c1)NC(=O)c1ccccc1S2 (stereo not drawn) [Compound 1592]
2. O=C(Nc1cccc(-c2ccncn2)c1)c1ccc2c(c1)NC(=O)c1cc(F)ccc1S2 [Compound 1451]
3. O=C(NCCC1CCCCC1)c1ccc2c(c1)NC(=O)c1ccc(F)cc1S2 [Compound 1234]
4. O=C(O)c1ccc(-c2cccc(NC(=O)c3ccc4c(c3)NC(=O)c3cc(F)ccc3S4)c2)cc1 [Compound 1419]
5. O=C(NCCCCC1CCCCC1)c1ccc2c(c1)NC(=O)c1ccccc1S2 [Compound 1150]

1. 102
2. 92
3. 79
4. 89
5. 22

* * *

Test system: AD38 cells
Experiment: Viability of AD38 cells (Promega CellTiter-Glo) at the end of compound treatment
Format: cell-based
Conditions: 10 μM compound, 6 days, luminescence normalized against DMSO control wells (controls being 100%)
I'd appreciate it if you could supply AD38 Viability Normalized Result (CPAM/DMSO %) at 10 μM values for the items below.
Hi, when you answer, please include the unit after the number. Thanks!

Cc1cccc(CNC(=O)c2ccc3c(c2)NC(=O)c2ccccc2S3(=O)=O)c1 | 117%
O=C(NCc1ccc(OC(F)(F)F)cc1)c1ccc2c(c1)NC(=O)c1ccccc1S2 | 99%
O=C(NCCc1ccc(OC(F)(F)F)cc1)c1ccc2c(c1)NC(=O)c1ccccc1S2 | 55%
O=C(NCCc1ccccn1)c1ccc2c(c1)NC(=O)c1ccccc1S2(=O)=O | 85%
O=C(Nc1cc(F)c(F)c(F)c1)c1ccc2c(c1)NC(=O)c1cc(F)ccc1S2 | 24%

Would you mind giving AD38 Viability Normalized Result (CPAM/DMSO %) at 10 μM for every molecule in the list below?
1. O=C1Nc2c(cc(F)c(C(=O)NCc3cncs3)c2F)Sc2ccccc21
2. O=C(NC[C@H](C(=O)O)c1ccccc1)c1ccc2c(c1)NC(=O)c1ccccc1S2
3. CNC(=O)c1ccc2c(c1)Sc1ccc(C(=O)NCCc3ccccc3)cc1NC2=O

1. 88%
2. 106%
3. 94%

* * *

Test system: HBV viral production in AD38 cells
Test: Viral load production in AD38 cells by quantitative PCR of the HBV core sequence in supernatant
Assay type: cell-based
Conditions: Hepatitis B virus, 144 h; 10 μM compound, 6 days at 37° C., viral load in supernatant compared against DMSO control wells; read-out: AD38 Viral Load (CpAM/DMSO %) at 10 μM
observable: activity at 10 µM (%)
Answers are plain numbers, in %.

# example entries with known answers
CN(C)S(=O)(=O)c1ccc(CCNC(=O)c2ccc3c(c2)NC(=O)c2c(F)cccc2S3)cc1 | 67
O=C(NCCc1ccccn1)c1ccc2c(c1)NC(=O)c1ccc(F)cc1S2 | 0
O=C1Nc2cc(S(=O)(=O)Nc3ccc(F)cc3F)ccc2Sc2ccccc21 | 57
COc1cc2c(cc1C(=O)NCCC1CCCCC1)NC(=O)c1ccccc1S2 | 11
O=C(Nc1ccc(F)cc1F)c1ccc2c(c1)NC(=O)c1cc(F)ccc1S2 | 14

Would you mind giving activity at 10 µM for every molecule in the list below?
1. CCN1c2ccc(C(=O)NCc3cncs3)cc2NC(=O)c2ccccc21
2. CNC(=O)c1ccc2c(c1)Sc1ccc(C(=O)NCCc3ccccc3)cc1NC2=O
3. O=C(Nc1cccc(-c2ccccc2)c1)c1ccc2c(c1)NC(=O)c1ccccc1S2

5
74
24

* * *

System: AD38 cells
Experiment: Viability of AD38 cells (Promega CellTiter-Glo) at the end of compound treatment
Assay type: cell-based
Conditions: 10 μM compound, 6 days, luminescence normalized against DMSO control wells (controls being 100%)
Please note: Criterion met applies when AD38 Viability Normalized Result (CPAM/DMSO %) at 10 μM is 90% or greater, and Criterion not met applies otherwise.

O=C(NCc1cccnc1)c1ccc2c(c1)NC(=O)c1ccccc1S2 | Criterion met
O=C(NCCc1cnco1)c1ccc2c(c1)NC(=O)c1cccc(F)c1S2 | Criterion met
CC(C)c1ncc(CNC(=O)c2ccc3c(c2)NC(=O)c2ccccc2S3)s1 | Criterion met
O=C(NCCc1cnco1)c1ccc2c(c1)NC(=O)c1ccc(F)cc1S2 | Criterion not met
O=C(NCc1cnc(-c2ccccc2)nc1)c1ccc2c(c1)NC(=O)c1ccccc1S2(=O)=O | Criterion met
CC(=O)N1CCC(CNC(=O)c2ccc3c(c2)NC(=O)c2ccccc2S3)C1 (stereo not shown) | Criterion met
CCc1ncsc1CNC(=O)c1ccc2c(c1)NC(=O)c1ccccc1S2 | Criterion met
CCC(CNC(=O)c1ccc2c(c1)NC(=O)c1ccccc1S2)c1ccccc1 (stereo not shown) | Criterion met

Determine whether measured AD38 Viability Normalized Result (CPAM/DMSO %) at 10 μM meets or exceeds 90% for "O=C1Nc2cc(S(=O)(=O)NCCc3cncnc3)ccc2Sc2ccccc21"
Criterion not met

Determine whether measured AD38 Viability Normalized Result (CPAM/DMSO %) at 10 μM meets or exceeds 90% for "CCOc1cccc(CCNC(=O)c2ccc3c(c2)NC(=O)c2ccccc2S3)c1"
Criterion not met

Determine whether measured AD38 Viability Normalized Result (CPAM/DMSO %) at 10 μM meets or exceeds 90% for "O=C1Nc2cc(S(=O)(=O)NCc3ccc(F)cc3)ccc2Sc2ccccc21"
Criterion not met

Determine whether measured AD38 Viability Normalized Result (CPAM/DMSO %) at 10 μM meets or exceeds 90% for "O=C1Nc2c(cc(F)c(C(=O)NCCc3cccnc3)c2F)Sc2ccccc21"
Criterion met

Determine whether measured AD38 Viability Normalized Result (CPAM/DMSO %) at 10 μM meets or exceeds 90% for "O=C(NCc1cncs1)c1ccc2c(c1)NC(=O)c1ccccc1N2Cc1ccccc1"
Criterion not met

Determine whether measured AD38 Viability Normalized Result (CPAM/DMSO %) at 10 μM meets or exceeds 90% for "COC(=O)c1ccc(-c2cccc(NC(=O)c3ccc4c(c3)NC(=O)c3cc(F)ccc3S4)c2)cc1"
Criterion not met

Determine whether measured AD38 Viability Normalized Result (CPAM/DMSO %) at 10 μM meets or exceeds 90% for "O=C(NCc1cnc(Cl)s1)c1ccc2c(c1)NC(=O)c1ccccc1S2"
Criterion not met

Determine whether measured AD38 Viability Normalized Result (CPAM/DMSO %) at 10 μM meets or exceeds 90% for Cl.O=C(NCC1CCNC1)c1ccc2c(c1)NC(=O)c1ccccc1S2 (stereo not shown)
Criterion met

* * *

Test system: AD38 cells
Experiment: Viability of AD38 cells (Promega CellTiter-Glo) at the end of compound treatment
Assay type: cell-based
Conditions: 10 μM compound, 6 days, luminescence normalized against DMSO control wells (controls being 100%)
observable: AD38 Viability Normalized Result (CPAM/DMSO %) at 10 μM
Hi, when you answer, please include the unit after the number. Thanks!

# example entries with known answers
N#Cc1ccc(CCNC(=O)c2ccc3c(c2)NC(=O)c2ccccc2S3)cc1 | 94%
CCCCNC(=O)c1ccc2c(c1)NC(=O)c1ccccc1S2 | 95%

Look up AD38 Viability Normalized Result (CPAM/DMSO %) at 10 μM of "O=C(NCc1ccncn1)c1ccc2c(c1)NC(=O)c1ccccc1S2" and report it.
87%
